Cited source for all entries: PubChem BioAssay (NCI)

- System: RXF 393 renal
- Protocol Details: NCI tumour cell line growth inhibition, 48 h
Quick list: TGI per entry.

// known answers, use as guide
{"columns": ["Compound", "System", "Result"],
 "data": [
  ["O=c1[nH]c(=O)n(C2CC(O)C(CO)O2)cc1COCC(F)(F)F (stereo not drawn)", "RXF 393 renal", "> 100 µM"],
  ["CCN(CC)CCN1C(=O)C(=O)N(c2cccc3ccccc23)C1=O", "RXF 393 renal", "> 10 µM"],
  ["CCOC1CCN(C(=O)c2ccccc2)O1 (stereo not drawn)", "RXF 393 renal", "> 10 µM"],
  ["C/C(O)=C(\\C=NC(=S)c1ccncc1)C(=O)Nc1ccccc1C", "RXF 393 renal", "> 100 µM"],
  ["C1CC2=C(C1)C1=S(S2)SC2=C1CCC2", "RXF 393 renal", "> 100 µM"]
]}

Query TGI on RXF 393 renal for "Cc1cc(C)nc(NS(=O)(=O)c2ccc(NC(=O)c3cc([N+](=O)[O-])cc([N+](=O)[O-])c3)cc2)n1"
> 100 µM

Next: "C=C(CN1c2ccccc2Sc2ccccc21)c1ccc(C(=O)Nc2ccccc2N)cc1"
> 100 µM

Subsequent entry: CCOC(=O)C1(C(=O)OCC)C=C(c2ccccc2)N(C2OC(COC(C)=O)C(OC(C)=O)C(OC(C)=O)C2OC(C)=O)C1=S (stereo not drawn)
> 100 µM

====

Each entry below carries its recorded TGI.
- Tested on: SF-539 CNS
- Protocol Details: NCI tumour cell line growth inhibition, 48 h

Examples from the recorded data:
{"columns": ["Compound", "Recorded Metric", "Result"],
 "data": [
  ["Cc1cc2nnc(C(N)=O)c(N)c2cc1C", "TGI", "> 100 µM"],
  ["C/C(CC(=O)Nc1ccc(NC(=O)C/C(C)=N\\NC(N)=O)cc1)=N/NC(N)=O", "TGI", "> 100 µM"],
  ["COc1cc2c3c(c1OC)C(=O)C=C3N(S(=O)(=O)c1ccc(C)cc1)CC2", "TGI", "> 100 µM"],
  ["CN(C)c1ccc(/C=C(\\NC(=O)c2ccccc2)C(=O)NC(Cc2c[nH]c3ccccc23)C(=O)O)cc1 (stereo unspecified)", "TGI", "> 100 µM"],
  ["CC(C)(C)c1nc(-c2cccc(NS(=O)(=O)c3c(F)cccc3F)c2F)c(-c2ccnc(N)n2)s1", "TGI", "> 100 µM"]
]}

Name the reported TGI value associated with the compound "C/C(O)=C(\N=O)C(=O)NCc1ccccc1"
> 100 µM

====

- Tested on: LOX IMVI melanoma
- Protocol Details: NCI tumour cell line growth inhibition, 48 h
Recorded Metric: TGI

Solved entries (count: 4):
{"columns": ["Molecule", "System", "TGI"],
 "data": [
  ["O=C(Nc1ccc2c(c1)OCCO2)C(=O)c1c[nH]c2ccccc12", "LOX IMVI melanoma", "> 100 µM"],
  ["COc1ccccc1C1C(C#N)=C(N)Oc2cc(O)ccc21 (configuration not stated)", "LOX IMVI melanoma", "> 100 µM"],
  ["CC(C)=C1CCC(CN2CCOCC2)C1=O (configuration not stated)", "LOX IMVI melanoma", "41.9 µM"],
  ["CCCCCCCCCCOC(=O)c1cc[n+](C)cc1", "LOX IMVI melanoma", "32.6 µM"]
]}

Fill in the blank: the reported TGI of "CC(=O)n1nc(-c2ccc3ccccc3c2)nc1C" is ____.
> 100 µM
